Every entry's value here was drawn from a melting point compilation (Tetko et al.; mined from patent text by program, amines drawn as free bases though some values may be those of a salt).

endpoint: melting point

Please review the entries below; each comes with its answer.
Cn1nncc1COc1nn2c(-c3ccccc3)nnc2cc1-c1ccccc1: 190 to 193 °C
COC(=O)[C@H](Cc1ccc(NC(=S)NCCCc2ccccc2)cc1)NC(=O)[C@@H]1CCCN1S(=O)(=O)c1ccc(C)cc1: 74 to 80 °C
CC(C)[C@H](NC(=O)OC(C)(C)C)C(=O)NC1CCC(Nc2cccc3c2C(=O)c2ccccc2C3=O)CC1 (some centres undefined): 179 °C

Quick one: give measured melting point for O=C(CC1CCC(CC(=O)Oc2cc(O)cc(O)c2)CC1)Oc1cc(O)cc(O)c1 (centres undefined) 215 to 220 °C

Quick one: give measured melting point for CCCCc1oc2ccccc2c1/C=N/OCCCOc1ccc(CC(=O)O)cc1 181 to 182 °C

Quick one: give measured melting point for CS(=O)(=O)c1ccc(-c2nc(C(F)(F)F)nc(N=[N+]=[N-])c2-c2ccccc2)cc1 172 to 175 °C

Quick one: give measured melting point for Cc1ccc(S(=O)(=O)N(c2ccc(Cl)cc2[N+](=O)[O-])C2CC2)cc1 98.5 to 100 °C

Quick one: give measured melting point for C=CCc1c(OCc2ccc3ccccc3n2)ccc2c1c(SC(C)(C)C)c(CC(C)(C)C(=O)O)n2Cc1ccc(Cl)cc1 103 to 105 °C

Quick one: give measured melting point for C[C@H]1[C@@H](O)[C@H](Cc2ccccc2)C(=O)N1c1ccc(C#N)c(Cl)c1 99 to 101 °C

Quick one: give measured melting point for COC(=O)Oc1c(OC)cc(OC)c2ccccc12 128 to 129 °C

Quick one: give measured melting point for COc1cc(Nc2ncc(C#N)c(-c3ccccc3)n2)cc(OC)c1 206 to 207 °C

Quick one: give measured melting point for Cc1c(Cc2cc(Cl)cc(Cl)c2)c(C(=O)O)nn1CCO 241 to 242 °C

Quick one: give measured melting point for O=C(Nc1ccc(Oc2ccccc2)cc1)N1CCN(c2nccc3ccccc23)CC1 122 to 123 °C

* * *

compounds and their reported melting point

Please review the entries below; each comes with its answer.
CCCN1CC=C(c2c(C)[nH]c3cc(OC)ccc23)CC1: 90 to 95 °C
CCOC(=O)c1ccc(OCC2CN(c3nnc(C)s3)CCO2)cc1 (stereo not given): 112 °C
CC(C)(C)Cc1ccc(Oc2ccc(C(O)c3ccncc3)cc2)cc1 (stereo not given): 120 to 122 °C
CC(C)(NC(=O)c1cc2c(n(CC3CCCCC3)c1=O)CCCCCC2)C(=O)N(N)S(C)(=O)=O: 177 to 178 °C

Quick one: give measured melting point for COc1ccc(-c2cnc3[nH]cc(C(N)=O)c3n2)cc1OC 290 to 292 °C

* * *

endpoint: melting point

Please review the entries below; each comes with its answer.
Cc1oc(-c2ccc(C(F)(F)F)cc2)cc1C(=O)Nc1cccc(C=O)c1: 183 to 184 °C
COC(=O)CNS(=O)(=O)c1ccc(CCN2CC=C(c3c[nH]c(-c4ccc(F)cc4)c3-c3ccncc3)CC2)cc1: 220 to 223 °C
CCCCCCCCCCCC12OC(C)CN1CC(C)O2 (stereo not given): > 130 °C
NC(=O)COCCOCCN1CCC(=C(c2ccccc2)c2ccccc2)CC1: 51 to 53 °C
Cc1cc(-c2cnn3c(C(F)(F)F)cc(-c4ccc(C(F)(F)F)c(OCC(F)(F)F)c4)nc23)cc(C)n1: 245 °C
Fc1cccc2c1C1=NCCN1C(Cl)=N2: 281 to 285 °C

Quick one: give measured melting point for Cn1nc(-c2ncc(Cl)cc2F)c(Cl)c1OC(F)F 95 to 96 °C

Quick one: give measured melting point for Cc1ncn(C)c1[N+](=O)[O-] 45 °C

Quick one: give measured melting point for CC(C)(Br)C(=O)NOCc1ccccc1 88.6 to 91.1 °C

Quick one: give measured melting point for O=C(O)CSc1ccc([N+](=O)[O-])cc1C(=O)O 216 to 217 °C
